- SYSTEM: T1, recombinant extracellular domain protein of human DLL3 (h.DLL3-ECD-His) (human, UniProt Q9NYJ7 27-492)
- T1 construct: extracellular domain; Commercial protein; also called human DLL3 antigen; not shown: His tag
- T1 sequence (looked up): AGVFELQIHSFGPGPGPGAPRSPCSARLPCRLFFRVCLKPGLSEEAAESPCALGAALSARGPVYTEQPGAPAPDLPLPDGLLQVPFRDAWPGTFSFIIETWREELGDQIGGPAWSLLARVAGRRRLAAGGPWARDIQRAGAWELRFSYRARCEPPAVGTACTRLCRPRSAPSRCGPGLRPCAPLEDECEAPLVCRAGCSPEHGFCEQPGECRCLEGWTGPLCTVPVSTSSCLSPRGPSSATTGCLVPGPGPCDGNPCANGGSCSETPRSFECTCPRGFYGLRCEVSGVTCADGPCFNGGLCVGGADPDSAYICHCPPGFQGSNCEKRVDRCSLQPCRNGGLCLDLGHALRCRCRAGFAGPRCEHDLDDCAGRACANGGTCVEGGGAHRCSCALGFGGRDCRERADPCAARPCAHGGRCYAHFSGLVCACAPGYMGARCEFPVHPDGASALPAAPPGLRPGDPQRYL
- ASSAY_METHOD_TEXT: BLI (ForteBio), antibody on ProA sensor, hDLL3-ECD-His in solution
Can you tell me Kd for the items I'm about to list?
Answers are plain numbers, in nM.

Solved cases (3 shown):
BINDER: 6F11C10-Hz1 antibody (antibody, human IgG1, kappa, V domains shown, Humanized IgG1/kappa) VH: EVQLVQSGAEVKKPGASVKVSCKASGFTFTDYYMHWVRQAPGQSLEWMGLVYPYNGDISYAQKFQGRVTLTVDTSISTAYMELSRLRSDDTAVYYCARQGNYVNNAIDYWGQGTLVTVSS VL: DIQMTQSPSSLSASVGDRVTITCKASQNVGNIIAWYQQKPGKSPKALIYLASYRYSGVPSRFSGSGSGTDFTLTISSLQPEDVATYFCQQYSDSPYTFGQGTKVEIKR
OUTCOME_MEASURE: Kd
MEAS_VALUE: 0.243
//
BINDER: 55C11E4-Hz1 (antibody, human IgG1, kappa, V domains shown, Humanized IgG1/kappa) VH: EVQLVQSGAEVKKPGASVKVSCKASGYTFTDYYMNWVRQAPGQRLEWMGVINPYNGGTNYSQKFQGRVTLTVDKSASTAYMELSSLRSEDTAVYYCARDSNYVGLLDYWGQGTLVTVSS VL: DIVLTQSPATLSLSPGERATLSCRASQSISNNLHWYQQKPGQAPRLLIKYASQSISGIPARFSGSGSGPDFTLTISSLEPEDFAVYFCQQSNSWPYTFGQGTKVEIKR
OUTCOME_MEASURE: Kd
MEAS_VALUE: 5.26
//
BINDER: 10F2F3-Hz antibody (antibody, human IgG1, kappa, V domains shown, Humanized) VH: QVQLVESGAEVKKPGSSVKVSCKASGYAFSSHWVNWVRQAPGQGLEWMGQIYPGNGDTNYAQKFQGRVTLTADKSTSTAYMELSSLTSEDTAVYFCARWFAYWGQGTLVTVSS VL: DIQMTQSPSSLSASVGDRVTITCKSSQSLLDGGNQKNYLAWYQQKPGKPPKLLVYFASIRESGVPSRFSGSGSGTDFTLTISSLQPEDFATYYCQQHYNTPWTFGQGTKVEIKR
OUTCOME_MEASURE: Kd
MEAS_VALUE: 6.07

Attention now turns to another entry.
# input binder: 87F7F10-Hz (antibody, human IgG1, kappa, V domains shown, Humanized; also called 87F7F10-hz1) VH: QVQLQESGPGLVKPSETLSLTCTVSGYSITSDFYWNWIRQPPGKGLEWIGYITYDGSTNYNPSLKSRVTISRDTSKNQFSLKLSSVTAADTAVYYCVYGDFNRHAMDYWGQGTLVTVSS VL: DIVMTQSPDSLAVSLGERATINCRSSQSLFNSRTRKNYLAWYQQKPGQPPKVLIYWASTRESGVPDRFSGSGSGTDFTLTISSLQAEDVAVYYCEQSFYLFTFGQGTKVEIKR ; wanted: its Kd
8.57
